test_details: inhibitors of HIV fusion peptide binding, primary screen, biochemical, uHTS, fluorescence dequenching (AID 1986)
condition_info: cell-free peptide binding, 30 min, at 20 µM
Out of some 290,000 compounds screened, about 890 (0.31%) were called active. Cut-off read from the data, not from the text of the source: active = inhibition mostly above about 52% (no sharp cut-off); inactive = mostly below about 76%. Shown is part of a subset that was picked to be rich in actives.
Outcomes you can answer with include only these: 1.0 for active, 0.0 for inactive

molecule | group_label
O=[N+]([O-])c1nn(-c2ccc3c(c2)OCCO3)n(O)c1=NCc1ccccc1Cl | 0.0
Cc1ccccc1CSc1n[nH]c(NS(=O)(=O)c2ccccc2)n1 | 0.0
Cc1cc(-c2csc(NC(=O)c3ccc(=O)[nH]c3)n2)c(C)n1Cc1ccccc1 | 0.0
CCNc1nc(-c2cc(C)n(Cc3ccco3)c2C)cs1 | 0.0
Cc1cc(-c2csc(NC(=O)c3ccc(=O)[nH]c3)n2)c(C)n1Cc1ccco1 | 1.0
CCOC(=O)C1=C(O)/C(=C/c2cc(OC)c(OC)c(OC)c2)SC1=Nc1ccc(OC)cc1 | 0.0

Pending molecule:
# lookup: test call for COc1ccc(NC(=S)NC(NC(=O)CCl)C(Cl)(Cl)Cl)c([N+](=O)[O-])c1 (stereo unspecified) 0.0

----------
Record form. Attribute: inhibition. Fill in for each entry.
test_details: inhibitors of HIV fusion peptide binding, primary screen, biochemical, uHTS, fluorescence dequenching (AID 1986)
condition_info: cell-free peptide binding, 30 min, at 20 µM, stronger effect = higher value
The campaign covered roughly 290,000 compounds. About 890 (0.31%) were called active. The full list was thinned out, with actives kept by preference.
Numbers only, in %.

Solved cases (8 shown):
molecule | quantitative_result
CCCC1(c2ccccc2)NC(=O)N(CC(=O)Nc2cc(OC)cc(OC)c2)C1=O (centres undefined) | 0.8
COc1ccc(/C=C/c2cccc[n+]2C)c(O)c1 | 2.7
CCCCC(CCC(=O)O)(C(=O)OCC)c1csc(Nc2ccc(C)cc2)n1 (centres undefined) | 13.4
COc1ccc(CNC(=O)Cn2nc(C(F)(F)F)cc2C)cc1 | -0.1
Cc1coc2cc3oc(=O)c(CCC(=O)N4CCC(C(=O)O)(c5ccccc5)CC4)c(C)c3cc12 | 3.7
COC(=O)c1ccccc1NC(=O)c1ccc2c(c1)OCCCO2 | -0.4
CCN1C(=O)/C(=C/N2CCc3ccccc32)SC1=S | 112
c1ccc(Cn2c[n+](Cc3ccccc3)cn2)cc1 | -1.5

Provide the reported inhibition of each entry below, same order.
1. O=C(COc1ccc(F)cc1)N(Cc1cccs1)C1CCS(=O)(=O)C1 (centres undefined)
2. O=C(/C=C/c1ccccc1)Nc1cccnc1Cl
3. Cc1cc(C(=O)Nc2cccnc2)cs1

1: 3.2; 2: -1.1; 3: 0.7

----------
test_details: inhibitors of HIV fusion peptide binding, primary screen, biochemical, uHTS, fluorescence dequenching (AID 1986)
condition_info: cell-free peptide binding, 30 min, at 20 µM, stronger effect = higher value
Screen size: about 290,000 compounds; about 890 (0.31%) were called active. The full list was thinned out, with actives kept by preference.
reported_endpoint: inhibition (%)
One number for each entry, in %.

Example molecules with recorded inhibition:
smiles_code | reported_endpoint | units_symbol | quantitative_result
COc1ccc(O)c(C(=O)c2cnc3nc4ccccc4n3c2)c1 | inhibition | % | 28.4
O=C(CSc1nc(O)cc(=O)[nH]1)N1c2ccccc2Sc2ccccc21 | inhibition | % | 2.6
CCC12CN3CCN(CC(C3)/C1=N\NC(=O)c1ccc(F)cc1)C2 | inhibition | % | 0.1

Batch: inhibition for all items listed.
1. CC1=NN(c2nc(-c3ccccc3)cs2)C(=O)C1
2. CC(C)CNC(=O)c1cccc(NC(=O)CCc2ccccc2)c1
3. O=C(COC(=O)c1ccc(S(=O)(=O)N2CCOCC2)cc1)NC1CCCC1

1: 47.5; 2: 0.2; 3: 0.3

----------
test_details: inhibitors of HIV fusion peptide binding, primary screen, biochemical, uHTS, fluorescence dequenching (AID 1986)
condition_info: cell-free peptide binding, 30 min, at 20 µM, stronger effect = higher value
Screen size: about 290,000 compounds; about 890 (0.31%) were called active. This is one part of a sample in which actives are shown more often than they occur.
Kindly supply the reported inhibition values for the records listed here.
One number for each entry, in %.

compound | quantitative_result
O=C(O)c1c2c(nc3ccccc13)/C(=C/c1ccc(O)cc1)CC2 | 77.1
COc1ccc(OC)c(NC(=O)Cc2nn(C)c(=O)c3ccccc23)c1 | 2.9
O=C(Nc1c2c(nn1-c1ccc([N+](=O)[O-])cc1)CS(=O)(=O)C2)C1CC1 | 0.9
COCCCN(C(=S)NC(=O)C(C)(C)C)c1c(N)n(Cc2ccccc2)c(=O)[nH]c1=O | -2.2
CCOc1ccc(C2C(C(=O)c3ccco3)=C(O)C(=O)N2Cc2cccnc2)cc1 (stereo unspecified) | 0.5
CC12C=CC(=O)C=C1CCC1C3CCC(O)(C(=O)CO)C3(C)CC3OC312 (stereo unspecified) | -0.7

Working through the 2 compounds below one at a time, give inhibition for each.
1. COC(=O)CN1C(=S)N(c2ccc(OC)cc2)C(=O)/C1=C/c1ccc(OC)cc1
2. CC(C)=C1C(=O)NN(c2ccc(F)c(Cl)c2)C1=O

-1.4
32.6

----------
test_details: inhibitors of HIV fusion peptide binding, primary screen, biochemical, uHTS, fluorescence dequenching (AID 1986)
condition_info: cell-free peptide binding, 30 min, measured here: repeat confirmation average inhibition, at 18.6 µM, stronger effect = higher value
Screen size: about 290,000 compounds; about 890 (0.31%) were called active. This excerpt belongs to a sample that is enriched for actives.
# inhibition >= 70% gives Yes, anything below gives No

Worked set:
molecule | group_label
O=C1OC(c2ccco2)=N/C1=C\c1ccc(-c2cccc(C(F)(F)F)c2)o1 | Yes
COc1ccc(Nc2nc3ccccc3nc2NS(=O)(=O)c2cccs2)c(OC)c1 | No
O=C(O)c1cc(-c2ccco2)nn1-c1ccc(Cl)cc1 | No
Cc1ccc(-c2[nH]c(-c3ccc(C(=O)O)cc3)nc2-c2ccccc2)cc1 | No
O=C(CCCSc1ccccc1)Nc1nc(-c2ccco2)c(-c2ccco2)s1 | No
COc1ccc(/C=N/N=C2/NC(=O)C(CC(=O)O)S2)cc1OCc1ccc(Cl)cc1Cl (stereo not drawn) | No
O=C(O)CN1C(=O)/C(=C\c2ccccc2OCc2ccc(F)cc2)SC1=S | No
CN(C)c1ccc(/C=N/N(CCC#N)C2=NS(=O)(=O)c3ccccc32)cc1 | No

Check this molecule for inhibition at or above 70%: Cc1cccc2c(N=Nc3ccccc3)c(O)[nH]c12 No

Please answer likewise for CN(C)Cc1c(O)ccc2c1O/C(=C\C=C\c1ccccc1)C2=O Yes

Same thing, different molecule: N#Cc1c(-c2ccco2)cc(-c2ccccc2)[nH]c1=O No

----------
test_details: inhibitors of HIV fusion peptide binding, primary screen, biochemical, uHTS, fluorescence dequenching (AID 1986)
condition_info: cell-free peptide binding, 30 min, at 20 µM, stronger effect = higher value
Screen size: about 290,000 compounds; about 890 (0.31%) were called active. The sample as a whole holds a higher share of actives than the screen did.
Assign inhibition to each entry below.
Answers are plain numbers, in %.

molecule | inhibition, %
N#C/C(=C\c1ccc(N2CCOCC2)o1)C(=O)N1CCOCC1 | 53.5
O=[N+]([O-])c1ccc(/C=C/C2=NN(c3ccccc3)C(c3ccco3)C2)o1 (centres undefined) | 18.7
CC(C(=O)Nc1ccc(C(=O)O)c(O)c1)N1C(=O)/C(=C\c2ccco2)SC1=S (centres undefined) | 78.3
CN(C)c1ncc(/C=C2/C(=O)NC(=S)N(C3CCCCC3)C2=O)cn1 | 32.3
O=C(OCC1O[C@@H](OC(=O)c2cc(O)c(O)c(O)c2)[C@@H](OC(=O)c2cc(O)c(O)c(O)c2)[C@@H](OC(=O)c2cc(O)c(O)c(O)c2)[C@@H]1OC(=O)c1cc(O)c(O)c(O)c1)c1cc(O)c(O)c(O)c1 (some centres undefined) | 56

Parameter requested: inhibition. Apply to each item below.
1. CC(=O)c1ccc(NC(=O)CCCN2C(=O)/C(=C/C(C)=C/c3ccccc3)SC2=S)cc1
2. O=C(CCCN1C(=O)/C(=C/c2ccccc2)SC1=S)Nc1ccc(C(=O)O)c(O)c1
3. O=C(CCN1C(=O)/C(=C\c2ccco2)SC1=S)Nc1ccc(C(=O)O)c(O)c1
4. N#C/C(=C/c1ccc(N2CCOCC2)o1)C(=O)Nc1ccccc1
5. CC(/C=C1\SC(=S)N(CCCC(=O)Nc2ccc(C(=O)O)c(O)c2)C1=O)=C\c1ccccc1
6. N#C/C(=C\c1ccc(N2CCOCC2)o1)C(=O)Nc1ccc(O)cc1

1. 3.3
2. 60.7
3. 75.4
4. 147
5. 56.9
6. 148

Record inhibition for all entries; do not skip any.
1. CCOC(=O)C1Nc2ccc(C(=O)O)cc2C2C=CCC12 (centres undefined)
2. CCN(CC)S(=O)(=O)c1ccc(C(=O)Nc2nnc(-c3ccco3)o2)cc1
3. O=C(CCCN1C(=O)/C(=C\c2ccco2)SC1=S)Nc1ccc2ccccc2c1
4. O=c1[nH]c2ccccc2nc1/C=C(\O)c1cccs1
5. Cc1ccc2nc(/C(C#N)=C\c3ccc(N4CCOCC4)o3)[nH]c2c1
6. O=c1cc2c(=O)oc3cc(O)c(O)oc3c2c(O)c1O
7. C/C(O)=C/c1nc2ccccc2[nH]c1=O

38
9.7
65.1
66.1
28
44.6
0.1

Batch request: inhibition for each of the following molecules.
1. Cc1ccc(N=Cc2sc(O)c3ccccc23)cc1
2. COC1OC(COC(=O)c2ccccc2)C(OC(=O)c2ccccc2)C1OC(=O)c1ccccc1 (centres undefined)
3. C(=C\c1ccco1)/C1=NN(c2ccccc2)C(c2ccco2)C1 (centres undefined)

1. 101
2. -0.6
3. 81.8

Where do these numbers come from? They come from PubChem BioAssay AID1986.
